Data origin: patent US10144715B2

- target desc: LXR β LBD protein (Homo sapiens (Human), UniProt P55055)
- Sequence (P55055 222-460): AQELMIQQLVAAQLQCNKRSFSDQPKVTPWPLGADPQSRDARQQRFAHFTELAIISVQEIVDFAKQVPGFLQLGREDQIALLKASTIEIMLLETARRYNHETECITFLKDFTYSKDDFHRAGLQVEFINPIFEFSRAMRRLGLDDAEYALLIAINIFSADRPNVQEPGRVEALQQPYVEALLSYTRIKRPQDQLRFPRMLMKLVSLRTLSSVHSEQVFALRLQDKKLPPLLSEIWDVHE
- experimental protocol: biochemical
- Type: biochemical
- recorded conditions: agonist mode
// reported FRET LXRβ efficacy per item

Use these answered entries as a reference point.
Measured FRET LXRβ efficacy of CC(C)c1ccc(CN2CCN(c3cccc(S(C)(=O)=O)c3)CC2c2ccccc2)cn1 (stereo not drawn) : 1048 (53) %

Measured FRET LXRβ efficacy of CC(C)[C@H]1CC[C@H](CN2CCN(c3cccc(S(C)(=O)=O)c3)C[C@@H]2c2ccccc2)CC1 (single isomer, unassigned) : 32%

Now consider a different compound.
Measured FRET LXRβ efficacy of CS(=O)(=O)c1cc(N2CCN(C[C@H]3CC[C@H](C(F)(F)F)CC3)[C@H](c3ccccc3)C2)ccc1C(N)=O (single isomer, unassigned) : 79%
